Tested on: Human papillomavirus type 1a E7 protein (residues 1-88)
Test: HPV1a E7 small-molecule binders, primary screen, biochemical, small-molecule microarray, residues 1-88, 635 nm (AID 1129)
Conditions: small-molecule microarray binding, fluorescence 635 nm; higher = more signal
result_type: composite z-score

INSERT INTO results (mol_smiles, endpoint_result) VALUES
  ('C[C@@H]1CC[C@H]2C(=O)O[C@@H](COc3ccc(C(C)(C)C)cc3)CN2[C@H]1c1ccc(Br)cc1', -0.153),
  ('COC(=O)[C@@H]1CC[C@H](C)[C@@H](c2ccc(Br)cc2)N1C(=O)C(F)(F)F', -1.42),
  ('CCN1C(=O)[C@H]2[C@H]3[C@H](O)[C@H](O)CC(=NNC(=O)OCc4ccccc4)[C@@H]3CC[C@H]2C1=O', -0.513),
  ('COc1ccc(O[C@H]2C=C[C@@H](c3ccccc3)O[C@@H]2COC(=O)NCc2cccc3ccccc23)cc1', -0.406);

----------
This listing pairs compounds with measured composite z-score.
Test: small-molecule binders of probe aLefty1, primary screen, biochemical, small-molecule microarray, 635/667 nm fluorescence (AID 1153);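 also: score merges spot fluorescence with signal-to-noise ratio from the scanned slide images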
Conditions: higher = more signal
result_type: composite z-score

INSERT INTO measurements (mol_smiles, endpoint_result) VALUES
  ('CC=CC1=C(CO)[C@H](O)[C@H]2O[C@H]2[C@@H]1O', -0.106),
  ('C[C@@H]1C=CCC(=O)OC[C@H](C)C(=O)N[C@@H](Cc2ccccc2)C(=O)OC1', -0.0287),
  ('COc1ccc(O[C@H]2C=C[C@@H](c3ccccc3)O[C@@H]2CO)cc1', -0.0501);

----------
System: Fibrinogen (Alexa647-labelled)
Test: fibrinogen binders on compound microarrays, profiling panel, artefact control for SMM control-protein annotation, biochemical, small-molecule microarray, 635/667 nm fluorescence (AID 1131);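 also: z-score merges 667 nm fluorescence with per-spot signal-to-noise over triplicate slides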
Conditions: fibrinogen-A647 binding fluorescence, higher = more signal
Assign fulfilled whenever composite z-score does not fall below 0.5; assign not fulfilled whenever it does.

INSERT INTO results (compound, tested_system, class) VALUES
  ('CCN1C(=O)[C@H]2[C@H]3[C@H](O)[C@H](O)CC(=NOC[C@@H](O)COCc4ccco4)[C@H]3CC[C@H]2C1=O', 'Fibrinogen (Alexa647-labelled)', 'not fulfilled'),
  ('Cc1ccc(S(=O)(=O)N[C@@H]2COC(=O)CC=C[C@@H](C)[C@H](NS(=O)(=O)c3ccc(C)cc3)COC(=O)[C@H](C)NC(=O)CC=C[C@H]2C)cc1', 'Fibrinogen (Alexa647-labelled)', 'not fulfilled'),
  ('CC(C)=CCCC(C)=CCON=C1C[C@@H](O)[C@@H](O)[C@@H]2[C@@H]3C(=O)N(Cc4ccc5c(c4)OCO5)C(=O)[C@@H]3CC[C@H]12', 'Fibrinogen (Alexa647-labelled)', 'fulfilled'),
  ('COC(=O)[C@@H]1CC[C@H](C)[C@@H](c2ccc(Br)cc2)N1C(=O)C(F)(F)F', 'Fibrinogen (Alexa647-labelled)', 'not fulfilled'),
  ('COC(=O)[C@H](C)NC(=O)CCC1CC(OC(=O)NCc2ccc3c(c2)OCO3)CC2(CCCC(COC(=O)NCc3ccccc3)O2)O1 (stereo partly specified)', 'Fibrinogen (Alexa647-labelled)', 'not fulfilled'),
  ('CC(=O)OC[C@H]1O[C@H](CCON=C(C)CCN2CCCc3nc(C)c(C)cc32)C=C[C@@H]1OC(C)=O', 'Fibrinogen (Alexa647-labelled)', 'not fulfilled'),
  ('COC(=O)[C@H](C)NC(=O)CCC1CC(OC(=O)NCc2cccc3ccccc23)CC2(CCCC(COC(=O)NCc3ccccc3)O2)O1 (stereo partly specified)', 'Fibrinogen (Alexa647-labelled)', 'fulfilled'),
  ('CCN1C(=O)[C@H]2[C@H]3[C@H](O)[C@H](O)CC(=NOCC[C@@H]4C=C[C@H](OC(C)=O)[C@@H](COC(C)=O)O4)[C@@H]3CC[C@H]2C1=O', 'Fibrinogen (Alexa647-labelled)', 'fulfilled'),
  ('O=C1C=C[C@@H](O)[C@@H]2[C@@H]3C(=O)N(c4cccc(Oc5ccccc5)c4)C(=O)[C@@H]3CC[C@@H]12', 'Fibrinogen (Alexa647-labelled)', 'not fulfilled'),
  ('CO[C@@H]1COC(=O)CC=C[C@H](C)[C@H](OC)COC(=O)[C@@H]2CCCN2C(=O)CC=C[C@H]1C', 'Fibrinogen (Alexa647-labelled)', 'not fulfilled'),
  ('COc1ccc2c(c1)O[C@@H](c1cccc(C(F)(F)F)c1)[C@H](O)C2=O', 'Fibrinogen (Alexa647-labelled)', 'not fulfilled'),
  ('COc1ccc(COC(=O)NN=C2C[C@@H](O)[C@@H](O)[C@@H]3[C@@H]4C(=O)N([C@@H](C)c5ccccc5)C(=O)[C@@H]4CC[C@@H]23)cc1', 'Fibrinogen (Alexa647-labelled)', 'not fulfilled'),
  ('CCC1=NOC(CCC2CC(OC(=O)NCc3cccc4c3OCO4)CC3(CCCC(COC(=O)NCCc4ccc(Cl)cc4)O3)O2)C1 (stereo unspecified)', 'Fibrinogen (Alexa647-labelled)', 'fulfilled'),
  ('COC(=O)[C@H](CCSC)NC(=O)CC=C[C@@H](C)CO', 'Fibrinogen (Alexa647-labelled)', 'not fulfilled'),
  ('COC(=O)[C@H](C)NC(=O)CCC1CC(OC(=O)NCCc2ccc(F)cc2)CC2(CCCC(COC(=O)NCc3ccccc3)O2)O1 (stereo partly specified)', 'Fibrinogen (Alexa647-labelled)', 'fulfilled'),
  ('COC(=O)CC=C[C@@H](C)[C@@H](C=NOC(C)CN1CCCCc2nc(C)c(C)cc21)NS(=O)(=O)c1ccc(C)cc1 (stereo partly specified)', 'Fibrinogen (Alexa647-labelled)', 'not fulfilled'),
  ('CCN1C(=O)[C@H]2[C@H]3[C@H](O)[C@H](O)CC(=NO[C@H](C)c4cn([C@@H]5COC[C@H]5O)nn4)[C@@H]3CC[C@H]2C1=O', 'Fibrinogen (Alexa647-labelled)', 'not fulfilled'),
  ('COC(=O)[C@H](C)NC(=O)CCC1CC(OC(=O)NCCc2ccc(F)cc2)CC2(CCCC(COC(=O)NCC3CCCCC3)O2)O1 (stereo partly specified)', 'Fibrinogen (Alexa647-labelled)', 'fulfilled'),
  ('CC(C)(C)N1C(=O)[C@H]2[C@H]3[C@H](O)[C@H](O)CC(=NNC(=O)OCc4ccccc4)[C@@H]3CC[C@H]2C1=O', 'Fibrinogen (Alexa647-labelled)', 'not fulfilled'),
  ('C#CCCCON=C1[C@H]2CCn3c(=O)n(Cc4cc5c(cc4Cl)OCO5)c(=O)n3[C@H]2[C@H](O)[C@@H]2O[C@H]12', 'Fibrinogen (Alexa647-labelled)', 'not fulfilled'),
  ('CCOC(=O)CCN1C(=O)[C@H]2[C@H]3[C@H](O)[C@H](O)CC(=NNC(=O)OCc4ccccc4)[C@H]3CC[C@H]2C1=O', 'Fibrinogen (Alexa647-labelled)', 'not fulfilled'),
  ('COc1ccc(O[C@H]2C=C[C@@H](c3ccccc3)O[C@@H]2CON=C(C)CCN2CCCc3nc(C)c(C)cc32)cc1', 'Fibrinogen (Alexa647-labelled)', 'not fulfilled'),
  ('Cc1ccc2[nH]c3nc(CCCn4ccnc4-c4ccccc4)nnc3c2c1', 'Fibrinogen (Alexa647-labelled)', 'fulfilled'),
  ('CON(C)C(=O)c1nnc2c(n1)[nH]c1ccccc12', 'Fibrinogen (Alexa647-labelled)', 'not fulfilled'),
  ('CCN1C(=O)[C@H]2[C@H]3[C@H](O)[C@H](O)CC(=NNC(=O)OCc4ccccc4)[C@@H]3CC[C@H]2C1=O', 'Fibrinogen (Alexa647-labelled)', 'not fulfilled');

----------
Tested on: Inhibin beta A chain (activin A)
Assay: INHBA (activin A) binders on microarrays, primary screen, biochemical, small-molecule microarray, 635 nm fluorescence scan (AID 1107);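 also: mouse activin A protein probed at 4.33 µg/mL on printed slides; score merges bound-protein fluorescence near 667 nm with spot signal-to-noise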
Conditions: small-molecule microarray binding, higher = more signal
result_type: composite z-score

INSERT INTO results (compound, result_type, endpoint_result) VALUES
  ('C=CC[C@@H]1C=C[C@H](Oc2ccc(C)cc2)[C@@H](COC(=O)NCc2cccc3ccccc23)O1', 'composite z-score', 1.03),
  ('CCN1C(C)=C(C(=O)OC)[C@@H](c2ccccc2)N2C(=O)[C@](O)(C(=O)OC)CC(C(C)=O)=C12', 'composite z-score', 0.423),
  ('CCOC(=O)CCN1C(=O)[C@H]2[C@H]3[C@H](O)[C@H](O)CC(=NNC(=O)OCc4ccccc4)[C@H]3CC[C@H]2C1=O', 'composite z-score', 1.62),
  ('COC(=O)CC=C[C@@H](C)[C@@H](C=NOC[C@@H](O)[C@H]1O[C@@H]2OC(C)(C)O[C@@H]2[C@H]1O)OC', 'composite z-score', -0.16),
  ('CC(C)CN1CCc2nc(-c3ccccc3)c3c(c2C1)CO[C@@H](C)C3', 'composite z-score', 0.0576),
  ('COc1ccc(COC(=O)NN=C2C[C@@H](O)[C@@H](O)[C@@H]3[C@@H]4C(=O)N(c5cccc(Oc6ccccc6)c5)C(=O)[C@@H]4CC[C@H]23)cc1', 'composite z-score', 0.212),
  ('C[C@@H]1CC[C@H]2C(=O)O[C@@H](CN=[N+]=[N-])CN2[C@H]1c1ccc(Br)cc1', 'composite z-score', 0.455),
  ('CO[C@@H]1COC(=O)CC=C[C@H](C)[C@H](OC)COC(=O)[C@@H]2CCCN2C(=O)CC=C[C@H]1C', 'composite z-score', 1.14),
  ('CC(C)[C@@H](OCc1ccccc1)[C@H](C)C=NO[C@@H](C)c1cn([C@H](CO)Cc2ccccc2)nn1', 'composite z-score', -0.245),
  ('CC[C@@H](c1ccccc1)n1c(=O)n2n(c1=O)[C@H]1[C@H](O)[C@@H]3O[C@@H]3C(=NOCc3ccccc3)[C@H]1CC2', 'composite z-score', 0.517),
  ('CCOC(=O)[C@H](Cc1ccccc1)NC(=O)CCC1CC(OC(=O)NCCc2ccc(F)cc2)CC2(CCCC(COC(=O)NCCOc3ccccc3)O2)O1 (stereo partly specified)', 'composite z-score', -0.155);
